- Assay Target: Full-length glucokinase (beta cell isoform) (Homo sapiens, UniProt P35557)
- Construct: Full-length glucokinase (beta cell isoform) was His-tagged at N-terminus; His tag (N); made in house
- Experiment Summary: Glucokinase biochemical assay (PK/LDH-coupled, NADH depletion at 340 nm): % activation, EC50, % max activation
- Condition: 10 uM compound; 5 mM glucose; % Activation=(Va/Vo−1)×100; read-out: % Activation at 10 uM
- Experimental: Full-length glucokinase (beta cell isoform) was His-tagged at N-terminus and purified by a Ni column followed by size exclusion chromatography. Glucose was obtained from Calbiochem, and other reagents were from Sigma. […] Glucokinase was added to the buffer mixture to initiate the reaction in the presence and absence of compound. Reaction was monitored by absorbance at 340nm due to the depletion of NADH. The initial reaction velocity was measured by the slope of a linear time course of 200-900 sec. […]
Reported Metric: activation at 10 µM

Worked cases, activation at 10 µM given:
| Molecule | Assay Target | activation at 10 µM |
| --- | --- | --- |
| COCC1(C)Cc2c(Oc3ccc(S(C)(=O)=O)cc3)cc(C(=O)Nc3ccn(C)n3)cc2O1 (centres unmarked) | Full-length glucokinase (beta cell isoform) (Homo sapiens, UniProt P35557) | 151% |
| CC(C)COc1cc(C(=O)Nc2ccc(C(=O)O)cn2)cc2c1CC(C)(C)O2 | Full-length glucokinase (beta cell isoform) (Homo sapiens, UniProt P35557) | 167% |
| Cn1ccc(NC(=O)c2cc(Oc3ccc(C(=O)N4CCC4)cc3)c3c(c2)OC(C)(C)C3)n1 | Full-length glucokinase (beta cell isoform) (Homo sapiens, UniProt P35557) | 145% |

Input: Give the value of activation at 10 µM reported for the following: CC1Cc2c(Oc3ccc(S(C)(=O)=O)cc3)cc(C(=O)Nc3ccn(C)n3)cc2O1 (centres unmarked)
Output: 158%

###

Below, each of the molecules is paired with its reported Emax value.
- Assay Target: Full-length glucokinase (beta cell isoform) (Homo sapiens, UniProt P35557)
- Construct: Full-length glucokinase (beta cell isoform) was His-tagged at N-terminus; His tag (N); made in house
- Sequence (P35557 1-465): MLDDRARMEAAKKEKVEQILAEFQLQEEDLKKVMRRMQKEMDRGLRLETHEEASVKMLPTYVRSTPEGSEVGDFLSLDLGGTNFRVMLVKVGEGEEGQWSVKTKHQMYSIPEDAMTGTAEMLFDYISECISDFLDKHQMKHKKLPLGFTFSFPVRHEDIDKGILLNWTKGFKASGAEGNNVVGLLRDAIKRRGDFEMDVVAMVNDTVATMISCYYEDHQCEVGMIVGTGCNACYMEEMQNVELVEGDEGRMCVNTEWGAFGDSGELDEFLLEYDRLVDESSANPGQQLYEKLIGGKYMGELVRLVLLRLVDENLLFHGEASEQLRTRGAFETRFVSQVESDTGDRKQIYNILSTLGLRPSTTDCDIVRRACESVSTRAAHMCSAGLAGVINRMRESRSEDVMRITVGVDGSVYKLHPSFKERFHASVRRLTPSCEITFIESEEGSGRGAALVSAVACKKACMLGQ
- Experiment Summary: Glucokinase biochemical assay (PK/LDH-coupled, NADH depletion at 340 nm): % activation, EC50, % max activation
- Condition: 5 mM glucose; fitted maximum activation; read-out: % Max Activation
Entry rule: numbers only, all in %.

Worked cases, Emax given:
| Molecule | Endpoint Unit | Emax |
| --- | --- | --- |
| CC1Cc2c(cc(Oc3ccc(S(C)(=O)=O)cc3)cc2C(=O)Nc2ccccn2)O1 (centres unmarked) [Example 1] | % | 144 |
| Cc1cc(NC(=O)c2cc(Oc3ccc(S(C)(=O)=O)cc3)c3c(c2)OC(C)(C)C3)no1 [Example 25] | % | 116 |
| CN(C)C(=O)c1ncc(Oc2cc(C(=O)Nc3ccn(C)n3)cc3c2CC(C)(C)O3)cn1 [Example 164] | % | 102 |
| Cc1ncsc1CCOc1cc(C(=O)Nc2ccn(C)n2)cc2c1CC(C)(C)O2 [Example 99] | % | 136 |
| CNC(=O)c1ncc(Oc2cc(C(=O)Nc3ccn(C)n3)cc3c2CC(C)(C)O3)cc1F [Example 176] | % | 203 |
| CN1CCN(C(=O)c2ccc(Oc3cc(C(=O)Nc4ccn(C)n4)cc4c3CC(C)(C)O4)cc2F)CC1 [Example 53] | % | 135 |

Input: Give the value of Emax reported for the following: Cc1ccc(NC(=O)c2cc(Oc3ccc(S(=O)(=O)N(C)C)cc3)c3c(c2)OC(C)(C)C3)nc1 [Example 128]
Output: 112

Input: Give the value of Emax reported for the following: CN(C)C(=O)c1ccc(Oc2cc(C(=O)Nc3ccccn3)cc3c2CC(C)(C)O3)cc1 [Example 157]
Output: 71
